- tested-system: BRAF G466V (Homo sapiens, UniProt P15056, G466V)
- Construct: Horizon Discovery (HCT-116 BRAF−/− cells); host or cells: HCT-116 BRAF−/− cells, clone 8, lentiviral transduction
- Sequence (P15056 whole entry G466V): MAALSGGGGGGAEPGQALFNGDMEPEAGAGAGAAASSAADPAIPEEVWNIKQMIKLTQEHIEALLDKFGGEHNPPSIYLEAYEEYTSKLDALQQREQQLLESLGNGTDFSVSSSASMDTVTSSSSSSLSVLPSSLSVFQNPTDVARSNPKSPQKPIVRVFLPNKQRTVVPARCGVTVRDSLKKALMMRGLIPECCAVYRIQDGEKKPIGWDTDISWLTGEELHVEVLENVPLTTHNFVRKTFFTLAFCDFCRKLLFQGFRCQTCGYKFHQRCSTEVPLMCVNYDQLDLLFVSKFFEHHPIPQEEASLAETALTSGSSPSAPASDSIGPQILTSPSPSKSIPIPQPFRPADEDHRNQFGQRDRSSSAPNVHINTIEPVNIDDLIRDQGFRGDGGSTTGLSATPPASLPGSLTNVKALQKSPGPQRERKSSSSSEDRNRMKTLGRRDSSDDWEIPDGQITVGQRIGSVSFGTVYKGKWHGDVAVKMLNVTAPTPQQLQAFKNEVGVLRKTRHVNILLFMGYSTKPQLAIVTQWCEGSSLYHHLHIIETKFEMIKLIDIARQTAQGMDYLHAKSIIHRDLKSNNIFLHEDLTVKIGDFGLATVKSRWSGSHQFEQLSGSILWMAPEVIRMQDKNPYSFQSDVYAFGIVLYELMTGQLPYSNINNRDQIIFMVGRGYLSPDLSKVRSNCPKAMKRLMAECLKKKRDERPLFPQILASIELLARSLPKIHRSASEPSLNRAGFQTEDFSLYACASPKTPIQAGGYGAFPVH
- experiment-description: BRAF HiBiT degradation assay, C-terminal HiBiT-tagged BRAF G466V overexpressed in HCT-116 BRAF−/− cells (clone 8), Nano-Glo HiBiT Lytic assay
- Format: cell-based
- condition-set: BRAF G466V; DC50 at 50%: fitted conc. at Y=50
Below, each entry is listed with its recorded DC50.

The examples below pair each entry with its known result.
compound | tested-system | DC50
CCCS(=O)(=O)Nc1cccc(-c2nc(C(C)(C)C)sc2-c2ccnc(Nc3ccc(C4CCN(CC5CCN(c6ccc(C7CCC(=O)NC7=O)cn6)CC5)CC4)cc3)n2)c1F (racemic) | BRAF G466V (Homo sapiens, UniProt P15056, G466V) | > 500 nM
CCCS(=O)(=O)Nc1cccc(-c2nc(C(C)(C)C)sc2-c2ccnc(Nc3cnn(CC4CCN(C(=O)CN5CCC(c6ccc(NC7CCC(=O)NC7=O)cc6)CC5)CC4)c3)n2)c1F (racemic) | BRAF G466V (Homo sapiens, UniProt P15056, G466V) | > 500 nM
CCCS(=O)(=O)Nc1cccc(-c2nc(C(C)(C)C)sc2-c2ccnc(N[C@H]3CC[C@@H](N4CCN(C(=O)C5CCN(c6ccc(C7CCC(=O)NC7=O)cn6)CC5)CC4)CC3)n2)c1F (mixture of isomers) | BRAF G466V (Homo sapiens, UniProt P15056, G466V) | < 10 nM
CCN(C)S(=O)(=O)Nc1cccc(-c2nc(C(C)(C)C)sc2-c2ccnc(Nc3ccc(N4CCN(CC5CCN(c6ccc(C7CCC(=O)NC7=O)cn6)CC5)CC4)cn3)n2)c1F (racemic) | BRAF G466V (Homo sapiens, UniProt P15056, G466V) | 10 to 50 nM

Here CCCS(=O)(=O)Nc1cccc(-c2nc(C(C)(C)C)sc2-c2ccnc(NCC3CCN(CC4CCN(c5ccc(C(=O)N[C@H]6CCC(=O)NC6=O)nc5)CC4)CC3)n2)c1F was tested on BRAF G466V (Homo sapiens, UniProt P15056, G466V), and its DC50 came to > 500 nM

The measured values listed here are drawn from patent US20260317324A1.
